This collection of values is drawn from ChEMBL document CHEMBL1132363.

- Tested on: Vero
- assay: The compound was tested for the cytotoxicity against Vero cells
- Assay type: functional, cell-based
- test.context: Chlorocebus sabaeus
measured.endpoint: IC50

[in] Given "Cc1cn([C@@H]2C=C[C@H](CO)C2)c(=O)[nH]c1=O" , state its recorded IC50.
[out] 49.4 µM

[in] Given COC1O[C@H]2[C@H](COC(C)(C)C)C[C@H](n3cnc4c(Cl)ncnc43)[C@H]2O1 (stereo partly specified) , state its recorded IC50.
[out] > 100 µM

[in] Given "OC[C@H]1C=C[C@@H](n2cnc3c(S)ncnc32)C1" , state its recorded IC50.
[out] > 100 µM

[in] Given Nc1ncnc2c1ncn2C1CCC(CO)C1 (stereo unspecified) , state its recorded IC50.
[out] > 100 µM

[in] Given "Nc1ccn([C@@H]2C=C[C@H](CO)C2)c(=O)n1" , state its recorded IC50.
[out] > 100 µM

[in] Given Cc1cn(C2CCC(CO)C2)c(=O)[nH]c1=O (stereo unspecified) , state its recorded IC50.
[out] 171 µM

[in] Given "O=c1ccn([C@@H]2C=C[C@H](CO)C2)c(=O)[nH]1" , state its recorded IC50.
[out] > 100 µM

[in] Given "OC[C@H]1CC[C@@H](n2cnc3c(O)ncnc32)C1" , state its recorded IC50.
[out] > 100 µM

[in] Given O=c1ccn(C2CCC(CO)C2)c(=O)[nH]1 (stereo unspecified) , state its recorded IC50.
[out] > 100 µM

[in] Given "OC[C@H]1C=C[C@@H](n2cnc3c(O)ncnc32)C1" , state its recorded IC50.
[out] > 100 µM

[in] Given "Nc1ncnc2c1ncn2[C@@H]1C=C[C@H](CO)C1" , state its recorded IC50.
[out] > 100 µM
